- Method summary: compound autofluorescence in calcium buffer – biochemical, fluorescence, no RTF in test wells, artefact control for cardiac thin filament activator project, dose response (AID 504697);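 further: emission near 535 nm under roughly 485 nm excitation as for IANBD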
- Particulars: compound-only fluorescence in RTF assay buffer with Ca2+ (no RTF in test wells), artifact counterscreen
Active and inactive are the calls of the source.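 How the source made its calls: active means EC50 at or below 10 µM; inactive means EC50 above 10 µM.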
Give one outcome, nothing more. List: 1 (active), 0 (inactive)

Called result for `CN(Cc1ccccc1)C(=O)c1[nH]cnc1C(=O)NCc1ccccc1`
0

Kindly provide the recorded test outcome for the following compound: CC1CN(c2ccc(NS(=O)(=O)c3ccccc3)cc2C(=O)O)CC(C)O1 (stereo not given)
0

Could you please tell me the result logged for CN1CCC2(CC1)C1CN(C)CC=C1C(C#N)=C(N)C2(C#N)C#N (stereo not given) in this assay?
0

What call does the record list for `Cc1ccnc(N/C=C(\C#N)c2nc(-c3cccc(Br)c3)cs2)c1` ?
1

How did this test come out for `O=C1c2cccc3c(N4CCCCC4)ccc(c23)C(=O)N1c1cccc(O)c1` ?
1

---

- Method summary: compound autofluorescence in calcium buffer – biochemical, fluorescence, no RTF in test wells, artefact control for cardiac thin filament activator project, dose response (AID 504697);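 further: emission near 535 nm under roughly 485 nm excitation as for IANBD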
- Particulars: compound-only fluorescence in RTF assay buffer with Ca2+ (no RTF in test wells), artifact counterscreen
Activity calls are given as the source filed them.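 Rule for the calls: active = EC50 at or below 10 µM; inactive = EC50 above 10 µM.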
The reply should name one outcome from active, inactive

>  <Compound>
CCN1C(=O)/C(=C/C=C2/SCCN2C)SC1=S

>  <Class label>
active

$$$$
>  <Compound>
Fc1ccc(CNC(=S)NCc2ccc(F)cc2)cc1

>  <Class label>
inactive

$$$$
>  <Compound>
Fc1ccc(-c2nnc(-c3ccc(Cl)cc3Cl)o2)cc1

>  <Class label>
inactive

$$$$
>  <Compound>
C/C(O)=c1/ccc2cccc3nc(C)nc1c23

>  <Class label>
inactive

$$$$

Answer briefly: the call reported for `C=CCn1c(=O)[nH]c2nc3cc(N=CN(C)C)c(C)cc3nc2c1=O` in this assay.
active

So what was the verdict on CC(C)CN1CCN(Cc2cccn2-c2ccc(Cl)cn2)CC1CCO (stereo unspecified) in this test?
inactive

---

- Method summary: compound autofluorescence in calcium buffer – biochemical, fluorescence, no RTF in test wells, artefact control for cardiac thin filament activator project, dose response (AID 504697);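 further: emission near 535 nm under roughly 485 nm excitation as for IANBD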
- Particulars: compound-only fluorescence in RTF assay buffer with Ca2+ (no RTF in test wells), artifact counterscreen
Active and inactive are the calls of the source.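 Rule for the calls: active = EC50 at or below 10 µM; inactive = EC50 above 10 µM.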
The categories you may choose from are label 1 for active, label 0 for inactive

For `CCN(CC)c1ccc(/C=C2\C(=O)c3ccc(C(=O)O)cc3C2=O)cc1` , which call appears in the assay record?
label 1

What classification did O=C(C1=C(O)C(=O)N(CCN2CCOCC2)C1c1ccc([N+](=O)[O-])cc1)c1cccs1 (stereo not given) end up with in this test?
label 0

Answer briefly: the call reported for `COc1ccc(OC)c(/C=C2\N=C(c3ccccc3)OC2=O)c1` in this assay.
label 1

Recorded call for COc1ccc(C(=O)/C=C/c2cn(CC(O)CN3CCN(C)CC3)c3ccccc23)cc1OC (stereo not given) ?
label 0

For this compound, state the assay outcome: `COc1ccc(N=C2NC(=O)S/C2=C\c2ccc(N(C)C)cc2)cc1`
label 1

Fill in: this test's call for `Cc1cc(/C=C2\SC(=S)N(Cc3ccco3)C2=O)c(C)n1-c1cccnc1` is ___
label 0

Hi, do you know how O=C(Nc1ccccc1)NC1CS(=O)(=O)CC1O (stereo not given) came out in this test?
label 0
